Tested on: QG-56
Assay Summary: Cytotoxicity against human QG56 cells after 4 days
Type: functional, cell-based
Measurement Setup: QG-56, 96 h
pIC50: −log10 of the molar value.
The threshold is inclusive: pIC50 of exactly 7 counts as Met; values below receive Not met.

Task: Assess whether reported pIC50 for CC(=O)NCCO/N=C/c1cc(C(=O)NOCCO)c(Nc2ccc(I)cc2F)c(F)c1F sits at 7 or higher.
Result: Not met

Task: Assess whether reported pIC50 for O=C(NOCCO)c1cc(CN2CCCC2=O)c(F)c(F)c1Nc1ccc(I)cc1F sits at 7 or higher.
Result: Met

Task: Assess whether reported pIC50 for O=C(NOCCO)c1cc(/C=N\OCCO)c(F)c(F)c1Nc1ccc(I)cc1F sits at 7 or higher.
Result: Met

Task: Assess whether reported pIC50 for O=C(NOCCO)c1cc(CN2CCOC2=O)c(F)c(F)c1Nc1ccc(I)cc1F sits at 7 or higher.
Result: Not met

Task: Assess whether reported pIC50 for O=C(NOCCO)c1cc(CN2OCCOC2=O)c(F)c(F)c1Nc1ccc(I)cc1F sits at 7 or higher.
Result: Met

Task: Assess whether reported pIC50 for CS(=O)(=O)CCO/N=C/c1cc(C(=O)NOCCO)c(Nc2ccc(I)cc2F)c(F)c1F sits at 7 or higher.
Result: Met

These measurements were taken from ChEMBL document CHEMBL1681704.
